- TARGET DESC: Recombinant human Cbl-b (aa 36-427) (Homo sapiens (Human))
- ASSAY DETAILS: Cbl-b Biochemical Assay (TR-FRET)
- PARTICULARS: read-out: TR-FRET hCbl-b IC50
Readings of IC50 for the listed molecules

[
  {
    "MOLECULE": "Cc1nc[nH]c1-c1ccccc1-c1cccc(N2Cc3c(cccc3C(F)(F)F)C2=O)c1 [AAV-6]",
    "TARGET DESC": "Recombinant human Cbl-b (aa 36-427) (Homo sapiens (Human))",
    "MEASURED PROPERTY": "IC50",
    "RESULT": "1000 to 10000 nM"
  },
  {
    "MOLECULE": "Cn1cnnc1-c1cc(C#N)ccc1-c1cc(C2CC2)nc(N2Cc3c(cc(COCC4(O)CCC4)cc3C(F)(F)F)C2=O)c1 [AHP-1]",
    "TARGET DESC": "Recombinant human Cbl-b (aa 36-427) (Homo sapiens (Human))",
    "MEASURED PROPERTY": "IC50",
    "RESULT": "≤ 200 nM"
  },
  {
    "MOLECULE": "CNCCNCc1cc2c(c(C(F)(F)F)c1)CN(c1cc(-c3ccc(C#N)cc3-c3nncn3C)cc(C3CC3)n1)C2=O [AMK-3]",
    "TARGET DESC": "Recombinant human Cbl-b (aa 36-427) (Homo sapiens (Human))",
    "MEASURED PROPERTY": "IC50",
    "RESULT": "≤ 200 nM"
  },
  {
    "MOLECULE": "CNC[C@@H](O)COc1ccc2c(c1)C(=O)N(c1cc(-c3ccc(C#N)cc3-c3nncn3C)cc(C3CC3)n1)C2 [AJV-3]",
    "TARGET DESC": "Recombinant human Cbl-b (aa 36-427) (Homo sapiens (Human))",
    "MEASURED PROPERTY": "IC50",
    "RESULT": "≤ 200 nM"
  },
  {
    "MOLECULE": "Cn1cnnc1-c1cc(C#N)ccc1-c1ccnc(N2Cc3c(cc(CO)cc3C(F)(F)F)C2=O)c1 [AEX-2]",
    "TARGET DESC": "Recombinant human Cbl-b (aa 36-427) (Homo sapiens (Human))",
    "MEASURED PROPERTY": "IC50",
    "RESULT": "≤ 200 nM"
  }
]

For the molecule CCNc1cc(-c2ccc(C#N)cc2-c2nncn2C)cc(N2Cc3c(cc(COCC4(O)CCC4)cc3C(F)(F)F)C2=O)n1 [AEZ-1] , give its reported IC50. ≤ 200 nM

Look up IC50 of Cn1cnnc1-c1cc(C#N)ccc1-c1cc(C2CC2)nc(N2Cc3ccc([C@H]4COC[C@@H](C5CCC5)N4)cc3C2=O)c1 (stereo in doubt) [AOP-4] and report it. ≤ 200 nM

Specify IC50 for C[C@@H](NCc1ccc2c(c1)C(=O)N(c1cc(-c3ccc(C#N)cc3-c3nncn3C)cc(C3CC3)n1)C2)C1COC1 [ANJ-2] and stop. ≤ 200 nM

Name the recorded IC50 of the molecule listed here: COCCNCc1ccc2c(c1)C(=O)N(c1cccc(-c3ccc(C#N)cc3-c3nncn3C)c1)C2 [AJF-1] ≤ 200 nM

Recall and state the measured IC50 for Cn1cnnc1-c1cc(C#N)ccc1-c1cc(C2CC2)nc(N2Cc3ccc(C(C)(C)NCC4CC4)cc3C2=O)c1 [ALL-2] . ≤ 200 nM

Please report the measured IC50 for CN(C)c1cc(-c2ccccc2-c2nncn2C)cc(N2Cc3c(cc(CO)cc3C(F)(F)F)C2=O)n1 [AD-4] 200 to 1000 nM

====

- TARGET DESC: Recombinant human Cbl-b (aa 36-427) (Homo sapiens (Human), UniProt Q13191)
- Sequence (Q13191 36-427): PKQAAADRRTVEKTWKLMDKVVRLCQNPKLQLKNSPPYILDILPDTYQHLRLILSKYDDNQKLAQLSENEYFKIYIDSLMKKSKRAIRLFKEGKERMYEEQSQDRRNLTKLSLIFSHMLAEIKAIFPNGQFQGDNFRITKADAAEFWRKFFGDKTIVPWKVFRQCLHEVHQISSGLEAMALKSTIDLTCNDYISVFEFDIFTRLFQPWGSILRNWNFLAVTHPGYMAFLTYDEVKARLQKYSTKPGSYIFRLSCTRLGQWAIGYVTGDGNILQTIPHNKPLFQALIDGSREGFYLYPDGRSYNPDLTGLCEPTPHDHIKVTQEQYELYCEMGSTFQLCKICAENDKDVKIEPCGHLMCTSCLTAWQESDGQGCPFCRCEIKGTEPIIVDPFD
- ASSAY DETAILS: Cbl-b Biochemical Assay (TR-FRET)
- PARTICULARS: read-out: TR-FRET hCbl-b IC50
Collected IC50 values appear next to each entry.

[
  {
    "COMPOUND": "Cn1cnnc1-c1cc(C#N)ccc1-c1cc(C2CC2)nc(N2Cc3ccc(C(C)(C)NC4CCC4)cc3C2=O)c1 [AOI-1]",
    "RESULT": "≤ 200 nM"
  }
]

Using the record for Cn1cnnc1-c1cc(C#N)ccc1-c1cc(C2CC2)nc(N2Cc3c(Br)cc(CO)cc3C2=O)c1 [ALA-5] , state its measured IC50. ≤ 200 nM

Identify IC50 associated with the compound Cn1cnnc1-c1cnn(C)c1-c1cc(CN)nc(N2Cc3c(cccc3C(F)(F)F)C2=O)c1 [ABG-3] 10000 to 50000 nM

Determine from records and report IC50 for Cn1cnnc1-c1cc(C#N)ccc1-c1cc(C2CC2)nc(N2Cc3ccc(CN4CCOC5(COC5)C4)cc3C2=O)c1 [AOO-2] ≤ 200 nM

Specify IC50 for CCNc1cc(-c2c(-c3nncn3C)cnn2C)cc(N2Cc3c(cc(COCC(C)(C)O)cc3C(F)(F)F)C2=O)n1 [ADY-2] and stop. ≤ 200 nM

State its IC50 for this compound: CCNc1cc(-c2ccc(OC)cc2-c2nncn2C)cc(N2Cc3c(cccc3C(F)(F)F)C2=O)n1 [AFB-8] ≤ 200 nM

====

- TARGET DESC: Recombinant human Cbl-b (aa 36-427) (Homo sapiens (Human), UniProt Q13191)
- ASSAY DETAILS: Cbl-b Biochemical Assay (TR-FRET)
- PARTICULARS: read-out: TR-FRET hCbl-b IC50
Below, each entry is listed alongside its reported IC50.

Below, each entry is followed by its recorded IC50 result.
[
  {
    "MOL": "CCNc1cc(-c2ccc(C#N)cc2-c2nncn2C)cc(N2Cc3c(cc(CN[C@@H]4CCC[C@@H]4F)cc3C(F)(F)F)C2=O)n1",
    "RESULT": "≤ 0.2 µM"
  },
  {
    "MOL": "COc1ccc(-c2ccccc2-c2nncn2C)cc1N1Cc2c(cccc2C(F)(F)F)C1=O",
    "RESULT": "10 to 50 µM"
  }
]

Let us examine a further case.
Identify IC50 associated with the compound Cn1cnnc1-c1cc(Cl)ccc1-c1cc(C2CC2)nc(N2Cc3ccc(CO)cc3C2=O)c1 ≤ 0.2 µM

====

# IC50 per entry
- TARGET DESC: Recombinant human Cbl-b (aa 36-427) (Homo sapiens (Human), UniProt Q13191)
- ASSAY DETAILS: Cbl-b Biochemical Assay (TR-FRET)
- PARTICULARS: read-out: TR-FRET hCbl-b IC50

For orientation, consider the following solved cases.
[
  {
    "MOLECULE": "CCNc1cc(-c2ccc(C#N)cc2-c2nncn2C)cc(N2Cc3c(cc(CO)cc3C(F)(F)F)C2=O)n1 [ADX-2]",
    "MEASURED PROPERTY": "IC50",
    "RESULT": "≤ 200 nM"
  },
  {
    "MOLECULE": "Cn1cnnc1-c1cnn(C)c1-c1cccc(N2Cc3c(cc(CN4CCC5(CC5)C4)cc3C(F)(F)F)C2=O)c1 [AAD-1]",
    "MEASURED PROPERTY": "IC50",
    "RESULT": "≤ 200 nM"
  },
  {
    "MOLECULE": "CCNc1cc(-c2c(-c3nncn3C)cnn2C)cc(N2Cc3c(cccc3C(F)(F)F)C2=O)n1 [ACO-1]",
    "MEASURED PROPERTY": "IC50",
    "RESULT": "≤ 200 nM"
  },
  {
    "MOLECULE": "Cn1cnnc1-c1cc(C#N)ccc1-c1cc(C2CC2)nc(N2Cc3cc(Cl)c(CNCC4CCCC4)cc3C2=O)c1 [AKO-2]",
    "MEASURED PROPERTY": "IC50",
    "RESULT": "≤ 200 nM"
  },
  {
    "MOLECULE": "CCNc1cc(-c2c(-c3nncn3C)cnn2C)cc(N2Cc3c(cc(CN4CCC[C@H](C)C4)cc3C(F)(F)F)C2=O)n1 [ACF-1]",
    "MEASURED PROPERTY": "IC50",
    "RESULT": "≤ 200 nM"
  }
]

For Recombinant human Cbl-b (aa 36-427) (Homo sapiens (Human), UniProt Q13191), give the measured IC50 of the entry COCCNCc1cc2c(c(C(F)(F)F)c1)CN(c1cc(-c3ccc(C#N)cc3-c3nncn3C)cc(C3CC3)n1)C2=O [AEN-1] ≤ 200 nM

Fill: IC50 (Recombinant human Cbl-b (aa 36-427) (Homo sapiens (Human), UniProt Q13191)) for this molecule CCNc1cc(-c2c(-c3nncn3C)cnn2C)cc(N2Cc3c(cc(OCCN4CCCC4)cc3C(F)(F)F)C2=O)n1 [ACN-5] ≤ 200 nM
